System: U2OS
method_description: Multiplex assay against U2OS
Assay type: toxicity, cell-based
condition: human, 12 h, 1 µM, compound concentration 1 uM, replicate 2
Could you please report measured Population Mitochondria Different-Phenotype (%) for the items listed next?
Answers are plain numbers, in %.

>  <compound>
CCOc1cc(N2CCC(O)CC2)ccc1Nc1ncc2c(n1)N(C1CCCC1)CCC(=O)N2C

>  <measurement_unit>
%

>  <value_reported>
16

$$$$
>  <compound>
CCCn1c(=O)c2[nH]c(C34CC5CC(CC3C5)C4)nc2n(CCC)c1=O

>  <measurement_unit>
%

>  <value_reported>
15

$$$$
>  <compound>
COc1ccc(NS(=O)(=O)c2sc3ccc(Cl)cc3c2C)cc1N1CCNCC1.Cl

>  <measurement_unit>
%

>  <value_reported>
26

$$$$
>  <compound>
CN(C)C/C=C/C(=O)Nc1cc2c(Nc3ccc(F)c(Cl)c3)ncnc2cc1O[C@H]1CCOC1.O=C(O)/C=C\C(=O)O.O=C(O)/C=C\C(=O)O [AFATINIB DIMALEATE]

>  <measurement_unit>
%

>  <value_reported>
18

$$$$
>  <compound>
Cc1cc2c(cc1N1C(=O)c3cccc4c(CCCO)ccc(c34)C1=O)n(C)c(=O)n2C

>  <measurement_unit>
%

>  <value_reported>
22

$$$$

I'm hoping you can list Population Mitochondria Different-Phenotype (%) for every compound here, please.
1. N#Cc1cnc(Nc2cc(NC[C@H]3CNCCO3)c(C(F)(F)F)cn2)cn1
2. CC(=O)c1cc(-c2cc(C(=O)NC3CC3)ccc2C)c2ncccn12
3. Cl.Cl.Nc1ncnc2c1c(-c1cccc(OCc3ccccc3)c1)cn2[C@H]1C[C@@H](CN2CCC2)C1
4. Nc1ccc(C(=O)Nc2cccc(-c3nc(N4CCOCC4)c4oc5ncccc5c4n3)c2)cn1
5. CCOc1cc2ncc(C#N)c(Nc3ccc(OCc4cccc(F)c4)c(Cl)c3)c2cc1NC(=O)/C=C/CN(C)C

1: 18; 2: 7; 3: 71; 4: 21; 5: 25
